# target.of.assay: T1, hROR2-Fc (human ROR2 Fc fusion protein) (human, UniProt Q01974 34-403, limits assumed)
# T1 construct: Given both as hROR2-Fc and as Fc-hROR2, so the order of the two parts is not certain; also called Fc-hROR2; not shown: human Fc part (captured by a mouse anti-human IgG CH2 / Fcγ mAb)
# assay.procedure: SPR (Biacore X100), Fc-hROR2 captured on CM5 chip via mouse anti-human Fcγ mAb, Fab as analyte, 1:1 binding model
Label 1 when koff >= 0.0005 s⁻¹; otherwise 0.

binder	assigned.category
XBR2-401-hX3.12.6 Fab (affinity matured and humanized) (Fab, V domains shown, Fab expressed in E. coli) VH: EVQLVESGGGLVQPGGSLRLSCAASGFTFSSYGVTWVRQAPGKGLEWVSYINTAGNTYYASWAKSRFTISRDNAKNSLYLQMNSLRAEDTAVYYCARDDRWSLNIWGQGTLVTVSS VL: DPMLTQSPSSLSASVGDRVTITCQASQSISSDLSWYQQKPGKAPKLLIYQASTLASGVPSRFKGSGYGTEYTLTISSLQPEDFATYYCLGGYADASYRTAFGGGTKLEIK	0
hX3.12.8 Fab (Fab, V domains shown, The text says that hX3.12.5 to hX3.12.8 all utilized VL2) VH: EQQVVESGGGLVQPGGSLRLSCAASGFSLSSYGVTWVRQAPGKGLEWVGYINTAGNTYYASWAKSRFTISRDNSKNTVYLQMNSLRAEDTAVYYCARDDRWSLNIWGQGTLVTVSS VL: DPMLTQSPSSLSASVGDRVTITCQASQSISSDLSWYQQKPGKAPKLLIYQASTLASGVPSRFKGSGYGTEYTLTISSLQPEDFATYYCLGGYADASYRTAFGGGTKLEIK	1
h401.6 Fab (hX3.12.6 framework regions with parental 401 CDR sequences) (Fab, V domains shown, this is an inference) VH: EVQLVESGGGLVQPGGSLRLSCAASGFTFSSYGVTWVRQAPGKGLEWVSYINTAGNTYYASWAKSRFTISRDNAKNSLYLQMNSLRAEDTAVYYCARDWTSLNIWGQGTLVTVSS VL: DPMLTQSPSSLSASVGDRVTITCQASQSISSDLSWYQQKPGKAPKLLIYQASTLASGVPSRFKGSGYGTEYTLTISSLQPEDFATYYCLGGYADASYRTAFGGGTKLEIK	0
XBR2-401-hX3.12.5 Fab (affinity matured and humanized) (Fab, V domains shown, Fab expressed in E. coli) VH: EVQLVESGGGLIQPGGSLRLSCAASGFTVSSYGVTWVRQAPGKGLEWVSYINTAGNTYYASWAKSRFTISRDNSKNTLYLQMNSLRAEDTAVYYCARDDRWSLNIWGQGTLVTVSS VL: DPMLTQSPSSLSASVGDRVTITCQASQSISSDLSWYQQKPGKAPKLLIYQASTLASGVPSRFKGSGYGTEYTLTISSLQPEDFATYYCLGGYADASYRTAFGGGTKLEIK	0

Reported koff reaches at least 0.0005 s⁻¹ for hX3.12.7 Fab (Fab, V domains shown, The text says that hX3.12.5 to hX3.12.8 all utilized VL2) VH: EQQVVESGGGLVQPGGSLRLSCAVSGFSLSSYGVTWVRQAPGKGLEWIGYINTAGNTYYASWAKSRFTISRNTNENTVYLQMNSLRAEDTAVYFCARDDRWSLNIWGQGTLVTVSS VL: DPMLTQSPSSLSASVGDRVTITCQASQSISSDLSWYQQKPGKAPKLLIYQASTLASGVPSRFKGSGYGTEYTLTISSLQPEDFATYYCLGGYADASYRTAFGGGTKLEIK ?
0
